Target: RhlB (DEAD box RNA helicase) (Deinococcus radiodurans R1) (UniProt Q9RXH8)
Sequence: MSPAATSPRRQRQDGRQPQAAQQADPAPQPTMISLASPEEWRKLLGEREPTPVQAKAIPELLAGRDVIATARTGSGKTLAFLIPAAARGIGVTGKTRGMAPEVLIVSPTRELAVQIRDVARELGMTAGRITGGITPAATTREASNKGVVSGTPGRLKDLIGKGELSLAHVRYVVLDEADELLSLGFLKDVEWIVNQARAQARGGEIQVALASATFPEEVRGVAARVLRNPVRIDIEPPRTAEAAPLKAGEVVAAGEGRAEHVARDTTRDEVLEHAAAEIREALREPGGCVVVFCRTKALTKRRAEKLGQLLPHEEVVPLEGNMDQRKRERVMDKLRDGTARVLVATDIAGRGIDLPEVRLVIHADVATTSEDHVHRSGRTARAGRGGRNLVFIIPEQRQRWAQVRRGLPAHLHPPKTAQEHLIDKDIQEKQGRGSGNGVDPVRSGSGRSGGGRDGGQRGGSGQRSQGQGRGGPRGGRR
Assay: EMSA
Details: EMSA: 20 mM Tris-HCl pH 8.0, 1 mM MgCl2, 20 mM KCl, 10 mM Na phosphate pH 8.0, 10% glycerol, 500 nM heparin, 1 nM RNA, 37 C 1 h (PNPase: TMK, 50 mM Tris-HCl pH …)
measurement_name: pKd
One number for each entry, as −log10 of the molar value.

The recorded pKd for NNNGNNNNNGNNNNNGNNNNNGNN [Ctrl 24-mer (random N, degenerate)] is 5.52
